Hi there, I'd appreciate the recorded pKd for every entry that follows.
# System: T1, Recombinant hIL-36R protein (Acrobio, Cat #IL2-H52H6) (human, UniProt Q9HB29 20-335)
# T1 construct: Bought soluble protein; also called recombinant human IL-36R protein
# T1 sequence: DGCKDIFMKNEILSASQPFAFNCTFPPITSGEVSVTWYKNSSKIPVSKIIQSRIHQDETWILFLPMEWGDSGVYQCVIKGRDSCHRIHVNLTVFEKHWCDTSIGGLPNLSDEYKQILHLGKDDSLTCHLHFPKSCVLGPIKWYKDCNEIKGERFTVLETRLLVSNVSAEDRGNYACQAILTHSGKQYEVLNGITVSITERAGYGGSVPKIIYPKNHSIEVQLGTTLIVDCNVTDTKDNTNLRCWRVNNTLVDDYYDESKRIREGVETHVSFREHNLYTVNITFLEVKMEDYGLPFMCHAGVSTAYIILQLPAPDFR
# Assay Summary: BLI (Gator)
// field semantics: pKd = negative decimal log of concentration (mol/L)

For the binder 5F7-2d3 (antibody, human IgG4 S228P, kappa, V domains shown) VH: EVQLVESGGGLVKPGGSLRLSCAASGFNFTDYYMNWVRQAPGKGLEWVALIRNKAAGYTIYYSAPVKGRFTISRDDSKSTLYLQMNSLKTEDTAVYYCVRDMTIYDGYYVDYALDYWGQGTLVTVSS VL: DIVMTQSPSSVSASVGDRVTITCRASRNINIWLSWYQQKPGKAPKLFIYKASNLHTGVPSRFSGSGSGTDFTLTISSLQPEDFATYYCLQSQSYPLTFGQGTKLEIKR , report pKd. 8.61

For the binder 5F7-2g10 (antibody, human IgG4 S228P, kappa, V domains shown) VH: EVQLVESGGGLVKPGGSLRLSCAASGFAFTDYYLSWVRQAPGKGLEWVALIRNKAAGYTIYYSAPVKGRFTISRDDSKSTLYLQMNSLKTEDTAVYYCVRDMTIYDGYYVDYALDYWGQGTLVTVSS VL: DIVMTQSPSSVSASVGDRVTITCRASRNINIWLSWYQQKPGKAPKLFIYKASNLHTGVPSRFSGSGSGTDFTLTISSLQPEDFATYYCLQSQSYPLTFGQGTKLEIKR , report pKd. 9.20

For the binder 5F7-2c4 (antibody, human IgG4 S228P, kappa, V domains shown) VH: EVQLVESGGGLVKPGGSLRLSCAASGFAFTDYYLRWVRQAPGKGLEWVALIRNKAAGYTIYYSAPVKGRFTISRDDSKSTLYLQMNSLKTEDTAVYYCVRDMTIYDGYYVDYALDYWGQGTLVTVSS VL: DIVMTQSPSSVSASVGDRVTITCRASRNINIWLSWYQQKPGKAPKLFIYKASNLHTGVPSRFSGSGSGTDFTLTISSLQPEDFATYYCLQSQSYPLTFGQGTKLEIKR , report pKd. 5.69
